target: TNKS2 (Homo sapiens); assay: Modified TNKS2 Assay 2 (auto-parsylation, [3H]-NAD+ SPA); assay type: biochemical; conditions: 6 nM TNKS2, 96 well
VALUE_KIND: IC50 (nM)

CN1CCN(CCNC(=O)c2[nH]cnc2C(=O)Nc2ccc(NC(=O)c3ccccc3Cl)cc2)CC1 [Example 160]	110
COC(=O)c1nc[nH]c1C(=O)Nc1ccc(NC(=O)c2ccccc2Cl)c(OC)c1 [Example 98]	370
CN(C)CCNC(=O)c1nc[nH]c1C(=O)Nc1ccc(NC(=O)c2ccccc2Cl)c(F)c1 [Example 81]	160
CC(C)N(CCNC(=O)c1nc[nH]c1C(=O)Nc1ccc(NC(=O)c2ccc(F)cc2Cl)cc1)C(C)C [Example 389]	280
CCNC(=O)c1nc[nH]c1C(=O)Nc1ccc(NC(=O)c2cccc(OC)c2Cl)cc1 [Example 260]	6200
CNC(=O)c1nc[nH]c1C(=O)Nc1ccc(NC(=O)c2c(F)cc(F)cc2Cl)cc1 [Example 118]	140
Cc1cc(NC(=O)c2[nH]cnc2C(=O)NCCN(C)C)ccc1NC(=O)c1ccc(F)cc1Cl [Example 84]	260
C[C@@H]1CCCN(CCNC(=O)c2[nH]cnc2C(=O)Nc2ccc(NC(=O)c3ccc(F)cc3Cl)cc2)C1 [Example 278]	5
CNC(=O)c1nc[nH]c1C(=O)Nc1ccc(NC(=O)c2ccc(F)cc2Br)cc1 [Example 56]	570
CNC(=O)c1nc[nH]c1C(=O)Nc1ccc(NC(=O)c2ccncc2Cl)cc1 [Example 6]	180
COCCNC(=O)c1[nH]cnc1C(=O)Nc1ccc(NC(=O)c2ccc(F)cc2Cl)cc1 [Example 130]	70
CNC(=O)c1nc[nH]c1C(=O)Nc1ccc(NC(=O)c2cccc(F)c2Cl)cc1 [Example 370]	2200
COc1cc(NC(=O)c2[nH]cnc2C(=O)NCCN(C)C)ccc1NC(=O)c1ccc(F)cc1Cl [Example 96]	40

====

target: TNKS2 (Homo sapiens, UniProt Q9H2K2); test: Modified TNKS2 Assay 3 (BPS kit #80578, biotin-NAD+, 96 well); type: biochemical; conditions: human TNKS2, BPS kit #80578, 96 well
pIC50: −log10 of the molar value.
Decision: pIC50 compared against 7; not below it gives 1, below it gives -1.

O=C(Nc1ccc(NC(=O)c2nc[nH]c2C(=O)NCCN2CCC2)cc1)c1ccccc1Cl	1
CNCCNC(=O)c1[nH]cnc1C(=O)Nc1ccc(NC(=O)c2ccc(F)cc2Cl)cc1	1
COC(=O)c1nc[nH]c1C(=O)Nc1ccc(NC(=O)c2ccc(F)cc2Cl)cc1	1
CC1CCCN(CCNC(=O)c2[nH]cnc2C(=O)Nc2ccc(NC(=O)c3ccc(F)cc3Cl)cc2)C1 (stereo not shown)	1
O=C(Nc1ccc(NC(=O)c2[nH]cnc2C(=O)N2CC3(COC3)C2)cc1)c1cc(F)c(F)cc1Cl	-1

====

IC50 values, listed per item
Target: TNKS2 (Homo sapiens, UniProt Q9H2K2)
Sequence (Q9H2K2 1-1166): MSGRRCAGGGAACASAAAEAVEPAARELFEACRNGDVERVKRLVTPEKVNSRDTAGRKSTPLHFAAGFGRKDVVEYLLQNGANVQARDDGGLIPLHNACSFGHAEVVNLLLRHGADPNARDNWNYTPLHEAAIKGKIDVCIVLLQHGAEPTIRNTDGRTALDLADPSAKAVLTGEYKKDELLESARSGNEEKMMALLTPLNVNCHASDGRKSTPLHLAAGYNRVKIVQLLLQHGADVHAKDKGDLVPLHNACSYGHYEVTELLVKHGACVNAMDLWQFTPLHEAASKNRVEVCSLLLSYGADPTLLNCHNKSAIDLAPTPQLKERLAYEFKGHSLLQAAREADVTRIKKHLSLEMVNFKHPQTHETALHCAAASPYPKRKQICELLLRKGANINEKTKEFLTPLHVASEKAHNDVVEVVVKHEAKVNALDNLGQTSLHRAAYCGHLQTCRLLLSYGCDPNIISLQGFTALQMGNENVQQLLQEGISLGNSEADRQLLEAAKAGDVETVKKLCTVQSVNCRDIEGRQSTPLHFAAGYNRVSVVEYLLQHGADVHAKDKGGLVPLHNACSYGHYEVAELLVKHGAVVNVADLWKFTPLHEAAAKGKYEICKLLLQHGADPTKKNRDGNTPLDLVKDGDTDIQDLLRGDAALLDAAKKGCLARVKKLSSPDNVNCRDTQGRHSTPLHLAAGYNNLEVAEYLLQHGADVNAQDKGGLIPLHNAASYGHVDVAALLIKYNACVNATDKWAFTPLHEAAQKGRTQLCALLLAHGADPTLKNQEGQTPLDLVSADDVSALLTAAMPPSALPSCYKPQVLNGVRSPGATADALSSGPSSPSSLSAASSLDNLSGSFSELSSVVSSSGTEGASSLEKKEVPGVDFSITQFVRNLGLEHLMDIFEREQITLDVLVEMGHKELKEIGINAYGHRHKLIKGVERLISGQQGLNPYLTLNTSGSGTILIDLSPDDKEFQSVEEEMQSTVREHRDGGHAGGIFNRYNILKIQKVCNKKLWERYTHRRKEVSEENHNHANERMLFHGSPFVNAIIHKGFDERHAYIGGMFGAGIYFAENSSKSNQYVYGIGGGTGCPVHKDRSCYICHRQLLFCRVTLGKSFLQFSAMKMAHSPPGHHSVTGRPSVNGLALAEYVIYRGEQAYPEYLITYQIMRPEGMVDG
Assay: Modified TNKS2 Assay 2 (auto-parsylation, [3H]-NAD+ SPA)
Format: biochemical
Details: 6 nM TNKS2, 96 well
Experimental: The potency of selected compounds according to the invention was assessed applying an modified in vitro inhibition assay. Here, the TNKS2 catalyzed NAD^+-dependent ribosylation of the enzyme itself (auto-parsylation) was detected using [^3H]-NAD^+ as substrate and applying the scintillation proximity assay (SPA) method to detect tritium-labeled, parsylated TNKS2. The intensity of the readout signal is proportional to the incorporated [^3H]-NAD^+. […]
VALUE_KIND: IC50 (nM)

CC(CN1CCOCC1)NC(=O)c1[nH]cnc1C(=O)Nc1ccc(NC(=O)c2ccc(F)cc2Cl)cc1 (single isomer, unassigned; enantiomer 2)	3
COC(=O)c1nc[nH]c1C(=O)Nc1ccc(NC(=O)c2ccc(F)cc2Cl)c(OC)c1	500
CC(C)(CNC(=O)c1[nH]cnc1C(=O)Nc1ccc(NC(=O)c2ccccc2Cl)cc1)N1CCCCC1	70
CC(C)(CN1CCOCC1)NC(=O)c1[nH]cnc1C(=O)Nc1ccc(NC(=O)c2ccc(F)cc2)cc1	6900

====

pIC50 values, listed per item
Target: TNKS1 (Homo sapiens, UniProt O95271)
Sequence (O95271 1-1327): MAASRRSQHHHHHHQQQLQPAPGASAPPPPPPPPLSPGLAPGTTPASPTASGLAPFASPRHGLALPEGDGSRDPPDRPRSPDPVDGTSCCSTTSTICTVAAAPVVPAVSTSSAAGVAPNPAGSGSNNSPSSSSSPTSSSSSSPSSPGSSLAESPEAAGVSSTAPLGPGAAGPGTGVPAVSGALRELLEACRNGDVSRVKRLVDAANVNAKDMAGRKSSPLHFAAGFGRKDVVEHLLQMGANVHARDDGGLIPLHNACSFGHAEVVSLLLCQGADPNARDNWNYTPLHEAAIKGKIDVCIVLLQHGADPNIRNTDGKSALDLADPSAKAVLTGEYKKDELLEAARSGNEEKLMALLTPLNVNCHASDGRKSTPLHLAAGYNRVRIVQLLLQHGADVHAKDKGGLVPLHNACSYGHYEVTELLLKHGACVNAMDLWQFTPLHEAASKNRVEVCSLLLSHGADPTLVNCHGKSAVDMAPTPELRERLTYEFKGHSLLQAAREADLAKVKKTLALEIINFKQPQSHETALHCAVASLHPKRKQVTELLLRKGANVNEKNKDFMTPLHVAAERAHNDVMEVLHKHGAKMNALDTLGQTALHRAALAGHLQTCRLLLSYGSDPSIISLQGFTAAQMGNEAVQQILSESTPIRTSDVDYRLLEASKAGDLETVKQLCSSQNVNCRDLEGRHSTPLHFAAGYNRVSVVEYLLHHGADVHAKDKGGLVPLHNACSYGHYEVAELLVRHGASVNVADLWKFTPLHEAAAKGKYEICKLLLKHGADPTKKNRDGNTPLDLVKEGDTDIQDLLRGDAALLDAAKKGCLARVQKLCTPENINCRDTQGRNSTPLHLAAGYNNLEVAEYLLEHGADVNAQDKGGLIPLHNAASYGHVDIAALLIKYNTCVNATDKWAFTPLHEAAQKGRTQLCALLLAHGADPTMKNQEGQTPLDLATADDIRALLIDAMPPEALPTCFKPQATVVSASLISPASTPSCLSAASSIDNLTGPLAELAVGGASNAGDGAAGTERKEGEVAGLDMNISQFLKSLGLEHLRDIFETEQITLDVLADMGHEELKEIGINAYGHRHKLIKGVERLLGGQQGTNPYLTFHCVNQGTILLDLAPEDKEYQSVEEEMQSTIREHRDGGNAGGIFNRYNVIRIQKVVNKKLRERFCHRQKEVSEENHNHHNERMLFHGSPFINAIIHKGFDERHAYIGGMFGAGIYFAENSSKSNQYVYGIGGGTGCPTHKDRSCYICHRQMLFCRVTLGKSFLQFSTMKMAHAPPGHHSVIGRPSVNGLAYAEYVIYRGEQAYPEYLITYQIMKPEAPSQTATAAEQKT
Experiment: Modified TNKS1 Assay 2 (auto-parsylation, [3H]-NAD+ SPA)
Assay type: biochemical
Conditions: 6 nM TNKS1, 96 well
pIC50: −log10 of the molar value.
VALUE_KIND: pIC50

CNC(=O)c1nc[nH]c1C(=O)Nc1ccc(NC(=O)c2ccccc2Cl)nc1	6.60
CNC(=O)c1nc[nH]c1C(=O)Nc1ccc(NC(=O)c2ccc(F)cc2Br)cc1	6.28
CNC(=O)c1nc[nH]c1C(=O)Nc1ccc(NC(=O)c2ccc(F)cc2Cl)nc1	7.52
CNC(=O)c1nc[nH]c1C(=O)Nc1ccc(NC(=O)c2c(C)cccc2Cl)cc1	5.70
CNC(=O)c1nc[nH]c1C(=O)Nc1ccc(NC(=O)c2nccnc2Cl)cc1	5.24
O=C(Nc1ccc(NC(=O)c2nc[nH]c2C(=O)NCCCN2CCOCC2)cc1)c1ccc(F)cc1	5.39
CCN1CCC[C@@H]1CNC(=O)c1nc[nH]c1C(=O)Nc1ccc(NC(=O)c2ccc(F)cc2Cl)cc1	7.10
